inhibition at 0.2 µM values by entry
systemName: Cannabinoid CB1 Receptor (Homo sapiens)
Construct: expressed in transfected cells; semi-purified membrane pellet
Sequence (P21554 whole entry): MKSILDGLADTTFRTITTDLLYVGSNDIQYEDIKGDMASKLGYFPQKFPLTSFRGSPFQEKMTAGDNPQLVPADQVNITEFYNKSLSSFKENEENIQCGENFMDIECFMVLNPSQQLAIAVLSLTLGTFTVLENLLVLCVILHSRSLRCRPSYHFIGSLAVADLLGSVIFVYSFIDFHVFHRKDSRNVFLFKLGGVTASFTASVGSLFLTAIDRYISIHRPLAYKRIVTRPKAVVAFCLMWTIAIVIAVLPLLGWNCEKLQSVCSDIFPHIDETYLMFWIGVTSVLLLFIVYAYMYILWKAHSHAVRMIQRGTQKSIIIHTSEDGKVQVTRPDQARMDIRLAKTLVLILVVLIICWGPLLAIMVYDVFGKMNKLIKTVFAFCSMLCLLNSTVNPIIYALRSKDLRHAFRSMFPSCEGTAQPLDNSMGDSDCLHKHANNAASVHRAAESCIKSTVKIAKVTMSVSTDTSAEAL
experimentDescription: Binding assay, cannabinoid CB1 receptor ([3H]-CP-55,940 displacement, SK-N-MC cell membranes)
conditions: test concentration of 0.2 μM; human CB1 in SK-N-MC membranes; read-out: Cannabinoid CB1 Receptor Binding, percent inhibition
measuredParameter: inhibition at 0.2 µM (%)

INSERT INTO measurements (compound, measuredparameter, unitslabel, recordedmeasurement) VALUES
  ('CC1CCCC(C)N1NC(=O)c1nn(-c2ccc(Cl)cc2Cl)c2c1COC/C2=C\c1cccs1 (centres unmarked) [Cpd 37]', 'inhibition at 0.2 µM', '%', 61),
  ('COC[C@H]1CCCN1NC(=O)c1nn(-c2ccc(Cl)cc2Cl)c2c1COC/C2=C\c1ccc(F)cc1 [Cpd 75]', 'inhibition at 0.2 µM', '%', 68),
  ('C[C@@H](NC(=O)c1nn(-c2ccc(Cl)cc2Cl)c2c1COC/C2=C\c1ccc(Cl)s1)C1CCCCC1 [Cpd 52]', 'inhibition at 0.2 µM', '%', 88),
  ('O=C(NN1CCCC1)c1nn(-c2ccc(Cl)cc2Cl)c2c1COC/C2=C\c1ccc(Cl)o1 [Cpd 72]', 'inhibition at 0.2 µM', '%', 48),
  ('CC1CCCC(C)N1NC(=O)c1nn(-c2ccc(Cl)cc2Cl)c2c1COC/C2=C\c1ccsc1 (centres unmarked) [Cpd 46]', 'inhibition at 0.2 µM', '%', 68);

###

systemName: Cannabinoid CB1 Receptor (Homo sapiens)
Construct: expressed in transfected cells; semi-purified membrane pellet
experimentDescription: Binding assay, cannabinoid CB1 receptor ([3H]-CP-55,940 displacement, SK-N-MC cell membranes)
conditions: test concentration of 0.2 μM; human CB1 in SK-N-MC membranes; read-out: Cannabinoid CB1 Receptor Binding, percent inhibition
measuredParameter: inhibition at 0.2 µM (%)

INSERT INTO measurements (molsmiles, recordedmeasurement) VALUES
  ('C[C@@H](NC(=O)c1nn(-c2ccc(Cl)cc2Cl)c2c1COC/C2=C\c1cccs1)C1CCCCC1', 88),
  ('C[C@@H](NC(=O)c1nn(-c2ccc(Cl)cc2Cl)c2c1COC/C2=C\c1ccc(Cl)o1)c1ccccn1', 58),
  ('O=C(NN1CCCC1)c1nn(-c2ccc(Cl)cc2Cl)c2c1COC/C2=C\c1cccs1', 54),
  ('O=C(NN1CCCCC1)c1nn(-c2ccc(Cl)cc2Cl)c2c1COC/C2=C\c1ccc(F)cc1', 79),
  ('O=C(NN1CCCC1)c1nn(-c2ccc(Cl)cc2Cl)c2c1COC/C2=C\c1ccc(F)cc1', 58),
  ('O=C(NN1CCCCCC1)c1nn(-c2ccc(Cl)cc2Cl)c2c1COC/C2=C\c1cccs1', 84),
  ('C[C@@H](NC(=O)c1nn(-c2ccc(Cl)cc2Cl)c2c1COC/C2=C\c1ccc(Cl)o1)c1ccccc1', 73),
  ('COC[C@@H]1CCCN1NC(=O)c1nn(-c2ccc(Cl)cc2Cl)c2c1COC/C2=C\c1ccc(Cl)s1', 57);

###

systemName: Cannabinoid CB2 Receptor (Homo sapiens)
Construct: expressed in transfected cells; semi-purified membrane pellet
Sequence (P34972 whole entry): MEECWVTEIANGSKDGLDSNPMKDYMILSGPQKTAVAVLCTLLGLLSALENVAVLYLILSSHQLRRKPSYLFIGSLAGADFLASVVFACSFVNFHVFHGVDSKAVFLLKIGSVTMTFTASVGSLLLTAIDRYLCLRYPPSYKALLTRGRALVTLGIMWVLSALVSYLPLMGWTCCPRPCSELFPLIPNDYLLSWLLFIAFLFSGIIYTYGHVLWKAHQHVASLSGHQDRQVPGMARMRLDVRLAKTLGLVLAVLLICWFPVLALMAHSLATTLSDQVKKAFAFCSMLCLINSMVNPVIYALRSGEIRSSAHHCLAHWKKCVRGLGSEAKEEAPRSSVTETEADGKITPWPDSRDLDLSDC
experimentDescription: Binding assay, cannabinoid CB2 receptor ([3H]-CP-55,940 displacement, SK-N-MC cell membranes)
conditions: test concentration of 0.2 μM; human CB2 in SK-N-MC membranes; read-out: Cannabinoid CB2 Receptor Binding, percent inhibition
Our labelling divides records by inhibition at 0.2 µM into ranges: low group (below 10%), middle group (10% to below 20%), high group (20% or more)

INSERT INTO measurements (molecule, systemname, grouplabel) VALUES
  ('C[C@H](NC(=O)c1nn(-c2ccc(Cl)cc2Cl)c2c1COC/C2=C\c1ccsc1)C1CCCCC1', 'Cannabinoid CB2 Receptor (Homo sapiens)', 'high group'),
  ('O=C(c1nn(-c2ccc(Cl)cc2Cl)c2c1COC/C2=C\c1ccc(F)cc1)N1CCC[C@@H]1CO', 'Cannabinoid CB2 Receptor (Homo sapiens)', 'middle group'),
  ('C[C@@H](NC(=O)c1nn(-c2ccc(Cl)cc2Cl)c2c1COC/C2=C\c1ccsc1)C1CCCCC1', 'Cannabinoid CB2 Receptor (Homo sapiens)', 'middle group'),
  ('O=C(NN1CCCC1)c1nn(-c2ccc(Cl)cc2Cl)c2c1COC/C2=C\c1ccsc1', 'Cannabinoid CB2 Receptor (Homo sapiens)', 'low group'),
  ('O=C(NN1CCCCC1)c1nn(-c2ccc(Cl)cc2Cl)c2c1COC/C2=C\c1ccc(Cl)o1', 'Cannabinoid CB2 Receptor (Homo sapiens)', 'middle group'),
  ('C[C@H](NC(=O)c1nn(-c2ccc(Cl)cc2Cl)c2c1COC/C2=C\c1ccsc1)c1ccccc1', 'Cannabinoid CB2 Receptor (Homo sapiens)', 'middle group'),
  ('CN1CCN(NC(=O)c2nn(-c3ccc(Cl)cc3Cl)c3c2COCC3Cc2ccc(F)cc2)CC1 (stereo not shown)', 'Cannabinoid CB2 Receptor (Homo sapiens)', 'middle group'),
  ('C[C@H](NC(=O)c1nn(-c2ccc(Cl)cc2Cl)c2c1COC/C2=C\c1ccc(F)cc1)c1ccccc1', 'Cannabinoid CB2 Receptor (Homo sapiens)', 'low group'),
  ('O=C(NN1CC2CCCC2C1)c1nn(-c2ccc(Cl)cc2Cl)c2c1COC/C2=C\c1ccc(Cl)o1 (stereo not shown)', 'Cannabinoid CB2 Receptor (Homo sapiens)', 'middle group'),
  ('O=C(NN1CC2CCCC2C1)c1nn(-c2ccc(Cl)cc2Cl)c2c1COC/C2=C\c1ccc(F)cc1 (stereo not shown)', 'Cannabinoid CB2 Receptor (Homo sapiens)', 'high group'),
  ('CC1CCCC(C)N1NC(=O)c1nn(-c2ccc(Cl)cc2Cl)c2c1COC/C2=C\c1ccc(Cl)o1 (stereo not shown)', 'Cannabinoid CB2 Receptor (Homo sapiens)', 'high group'),
  ('O=C(NN1CCCCC1)c1nn(-c2ccc(Cl)cc2)c2c1COC/C2=C\c1ccc(F)cc1', 'Cannabinoid CB2 Receptor (Homo sapiens)', 'low group'),
  ('C[C@H](NC(=O)c1nn(-c2ccc(Cl)cc2Cl)c2c1COC/C2=C\c1ccc(Cl)s1)c1ccccc1', 'Cannabinoid CB2 Receptor (Homo sapiens)', 'middle group'),
  ('C[C@@H](NC(=O)c1nn(-c2ccc(Cl)cc2Cl)c2c1COC/C2=C\c1ccc(Cl)o1)c1ccccc1', 'Cannabinoid CB2 Receptor (Homo sapiens)', 'middle group'),
  ('O=C(N[C@@H]1c2ccccc2C[C@@H]1O)c1nn(-c2ccc(Cl)cc2Cl)c2c1COC/C2=C\c1ccc(F)cc1', 'Cannabinoid CB2 Receptor (Homo sapiens)', 'high group');
